Attribution: PubChem BioAssay (NCI)

system: UACC-257 melanoma; assay: NCI-60 one-dose screen, 48 h; settings: 10 µM unless noted
About 83,000 compounds went through this panel and 20% of them were active in at least one assay; those are over-represented in the sample as a whole. Calls of active or inactive are those of the source. How the source made its calls: active means growth percent below 10; inactive means the rest.
Tick one outcome: yes (1) (active), no (0) (inactive)

A selection of reference data follows.
Molecule: Cc1cc2cc3cc(C)c(N)cc3[n+](C)c2cc1N
Assigned Label: yes (1)
--
Molecule: Nc1c(Cl)cc([N+](=O)[O-])cc1Br
Assigned Label: no (0)
--
Molecule: CCC(=O)c1ccc(O)c(OC)c1
Assigned Label: no (0)
--
Molecule: COc1ccc(C(=O)c2cc3c(N)c(C(=O)Nc4ccc(Br)cc4)sc3nc2C)cc1
Assigned Label: no (0)
--
Molecule: CCCCCCOc1ccc(/C=N/Nc2cc(C)nc3ccc(Br)cc23)cc1
Assigned Label: no (0)

Prompt: Per the records of this test, what outcome belongs to COC(=O)C1=C(C(=O)ONCCN(C)C)C2C=CC1(C(Cc1ccccc1)Nc1ccc(F)cc1)O2 (stereo not given) ?
Response: no (0)

Prompt: Another molecule to look at: CN1CCN(CC#CCNC(=O)[C@]23CCC(C)(C)C[C@H]2C2=CC[C@@H]4[C@@]5(C)Cc6c([nH]c7ccccc67)C(C)(C)[C@@H]5CC[C@@]4(C)[C@]2(C)CC3)CC1
Response: no (0)

Prompt: Another molecule to look at: C=Cc1cc[n+](CCCCCCCCCCCC)cc1
Response: no (0)

Prompt: Another molecule to look at: CCCCCCC/C=C/[C@H]1O[C@]2(O)C(=O)C=C3C[C@@H](O[C@@H]4O[C@H](CO)[C@@H](O)C(O)[C@@H]4O)C[C@@H]3[C@H]2C=C1C (stereo not given in full)
Response: yes (1)

Prompt: Another molecule to look at: FC(F)(F)c1cccc(Nc2ccccc2)c1
Response: no (0)

Prompt: Another molecule to look at: COc1ccc(C(=O)c2cc3c(N)c(C(=O)Nc4cccc(Cl)c4C)sc3nc2C)cc1
Response: no (0)

Prompt: Another molecule to look at: C[C@H]1[C@H](C)CC[C@]2(CO)CC[C@]3(C)C(=CC[C@@H]4[C@@]5(C)CCCNC(C)(C)[C@@H]5CC[C@]43C)[C@H]12
Response: yes (1)

Prompt: Another molecule to look at: Cc1ccc2[nH]c(=S)n(-c3ccc(S(=O)(=O)Nc4ccc(Cl)nn4)cc3)c(=O)c2c1
Response: no (0)

Prompt: Another molecule to look at: COc1ccc(NC(=O)c2sc3nc(C)c(C(=O)CCc4cccc(OC)c4)cc3c2N)cc1
Response: no (0)

Prompt: Another molecule to look at: CCN1C(=O)N(CC)C2NC(SC)=NC21 (stereo not given)
Response: no (0)

Prompt: Another molecule to look at: O=C1NC(=S)NC(=O)C1=Cc1cn(Cc2ccccn2)c2ccccc12
Response: no (0)

----------
Tested on: OVCAR-8 ovarian
Assay: NCI-60 one-dose screen, 48 h (100 = growth as untreated, 0 = no growth, -100 = all killed)
Settings: 10 µM unless noted
Method: Growth inhibition of the OVCAR-8 human tumor cell line is measured as a screen for anti-cancer activity. Cells are grown in 96 well plates and exposed to the test compound for 48 hours. Compounds are tested at a single concentration, which is 10^-5 M for most compounds. The reported endpoint is percent growth (GI% or GIPRCNT), where numbers from 0 - 100% represent growth inhibition, and numbers from -100% - 0 represent cell death. For example, a value of 40 represents 60% growth inhibition. […]
Compounds without any hit were thinned out: in the full panel of roughly 83,000, 20% have a hit.
Please note: growth exactly at 90% is criterion not met. Only values below 90% get criterion met.

A selection of reference data follows.
Compound: COc1ccc(C(O)c2cc3c(N)c(C(=O)Nc4ccc(Br)cc4)sc3nc2C)cc1 (stereo not given)
Assigned Label: criterion met
//
Compound: COC(=O)CCCCCCCCC1(C)C=CC(C(C)O)=CC1 (stereo not given)
Assigned Label: criterion not met
//
Compound: CCCCCCCCCCCCCCCC(=O)OC[C@@]1(O)C[C@@]23CC[C@@H]4C(C)(C)[C@H](O)CC[C@@]4(C)[C@@H]2CC[C@H]1C3
Assigned Label: criterion not met

With those in mind, consider the next compound.
Prompt: Strictly below 90%: is that where growth of CCN(CC)CCCCCCNc1cc(OC)cc2cccnc12 sits?
Response: criterion met

----------
System: U251 CNS
Assay: NCI-60 one-dose screen, 48 h (100 = growth as untreated, 0 = no growth, -100 = all killed)
Conditions: 10 µM unless noted
Experimental: Growth inhibition of the U251 human tumor cell line is measured as a screen for anti-cancer activity. Cells are grown in 96 well plates and exposed to the test compound for 48 hours. Compounds are tested at a single concentration, which is 10^-5 M for most compounds. The reported endpoint is percent growth (GI% or GIPRCNT), where numbers from 0 - 100% represent growth inhibition, and numbers from -100% - 0 represent cell death. For example, a value of 40 represents 60% growth inhibition. […]
About 83,000 compounds went through this panel and 20% of them were active in at least one assay; those are over-represented in the sample as a whole.
Documented growth across a set of molecules
Entry rule: numbers only, all in %.

Molecule: O=S(=O)(c1ccccc1)N1CCCc2ccccc21
Recorded Metric: growth
Output Unit: %
Obs Value: 90.3
--
Molecule: COc1ccc(NC(=O)c2sc3nc(C)c(C(=O)c4ccc(OC)cc4)cc3c2N)cc1
Recorded Metric: growth
Output Unit: %
Obs Value: 39.7

Prompt: Give the measured growth of CCOC(=O)c1cnc2c(cnn2CC)c1NN=C(C)C .
Response: 90.4

Prompt: Another molecule to look at: O=C1OC(=O)C2C1CC=CC2c1ccccc1 (stereo not given)
Response: 87.8

Prompt: Another molecule to look at: O=C(Nc1sc2c(c1C(=O)O)CCCC2)c1cccc(C(F)(F)F)c1
Response: 88.3

----------
tested on: SK-OV-3 ovarian; assay: NCI-60 one-dose screen, 48 h (100 = growth as untreated, 0 = no growth, -100 = all killed); details: 10 µM unless noted
The panel holds about 83,000 compounds, 20% with a hit somewhere; the sample as a whole holds those more often. Activity calls are given as the source filed them. The calls were made as follows: active = growth percent below 10; inactive = the rest.
Documented growth across a set of molecules

Solved entries:
Molecule: COc1ccc(-c2nc(SC(C)C)nc(NNC(N)=O)c2C#N)cc1
Tested Target: SK-OV-3 ovarian
growth: 83.8% (inactive)
//
Molecule: COc1cc(C2CC(c3cccc(Nc4ccncc4)c3)=NN2c2ccc(Cl)cc2)cc(OC)c1OC (stereo not given)
Tested Target: SK-OV-3 ovarian
growth: 64.5% (inactive)
//
Molecule: COc1ccc(C(O)c2cc3c(N)c(C(=O)Nc4ccc(Br)cc4)sc3nc2C)cc1 (stereo not given)
Tested Target: SK-OV-3 ovarian
growth: 27.7% (inactive)
//
Molecule: O=C(O)CCCCCCCCCCCCCCC(=O)O
Tested Target: SK-OV-3 ovarian
growth: 102% (inactive)
//
Molecule: COc1ccccc1/C=C1\COc2ccc(-c3ccccc3)cc2C1=O
Tested Target: SK-OV-3 ovarian
growth: 50.7% (inactive)
//
Molecule: CSc1nc(O)c(-c2ccccc2)c(=O)[nH]1
Tested Target: SK-OV-3 ovarian
growth: 116% (inactive)
//
Molecule: c1ccc2c(-c3c4ccsc4cc4[nH]c5ccccc5c34)c[nH]c2c1
Tested Target: SK-OV-3 ovarian
growth: 49.5% (inactive)
//
Molecule: COc1cccc2cc(-c3cc4ccccc4[nH]3)/c(=N/C(=S)Nc3ccc(C)cc3)oc12
Tested Target: SK-OV-3 ovarian
growth: 64.7% (inactive)
//
Molecule: COc1ccc(Nc2nc(N)nc3c2CCc2occc2-3)cc1
Tested Target: SK-OV-3 ovarian
growth: 97.8% (inactive)
//
Molecule: COc1ccc(Cn2nc(-c3ccccc3)c3c2CCc2cnoc2-3)cc1
Tested Target: SK-OV-3 ovarian
growth: 83.1% (inactive)

Prompt: Give the measured growth of CN(C)C(C(N)=O)c1ccc(Cl)cc1 (stereo not given) .
Response: 98.5% (inactive)

Prompt: Another molecule to look at: Cc1ccc(C2CC(c3cccc(Nc4ccncc4)c3)=NN2c2ccc(Cl)cc2)cc1 (stereo not given)
Response: -92.3% (active)

Prompt: Another molecule to look at: O=C(CN1CCOCC1)Nc1ccc2ncnc(Nc3ccc(OCc4cccc(F)c4)c(Cl)c3)c2c1
Response: 6.86% (active)

----------
Documented growth across a set of compounds
tested on: CAKI-1 renal; test: NCI-60 one-dose screen, 48 h (100 = growth as untreated, 0 = no growth, -100 = all killed); details: 10 µM unless noted
About 83,000 compounds went through this panel and 20% of them were active in at least one assay; those are over-represented in the sample as a whole. Calls of active or inactive are those of the source. Rule for the calls: active = growth percent below 10; inactive = the rest.

Solved entries:
Compound: COc1ccc(-c2nc(N=Nc3c(O)[nH]c4ccccc34)nc(N3CCOCC3)c2C#N)cc1
Tested Target: CAKI-1 renal
growth: 43.3% (inactive)
--
Compound: CC(C)CN(C(=O)c1ccc(Cl)cc1)c1c(N)n(CC(C)C)c(=O)[nH]c1=O
Tested Target: CAKI-1 renal
growth: 50.2% (inactive)
--
Compound: CN1CCN(CC#CCNC(=O)[C@]23CCC(C)(C)C[C@H]2C2=CC[C@@H]4[C@@]5(C)Cc6c([nH]c7ccccc67)C(C)(C)[C@@H]5CC[C@@]4(C)[C@]2(C)CC3)CC1
Tested Target: CAKI-1 renal
growth: 87.2% (inactive)
--
Compound: COc1ccc(C(O)c2cc3c(N)c(C(=O)Nc4ccccc4)sc3nc2C)cc1 (stereo unspecified)
Tested Target: CAKI-1 renal
growth: 15.1% (inactive)
--
Compound: NC(=O)c1cccc(-c2cc(C(N)=O)ccc2Cl)c1
Tested Target: CAKI-1 renal
growth: 31.8% (inactive)

Pending compound:
Prompt: Give the measured growth of CC(=O)c1cccc(NS(=O)(=O)c2cccc(C(=O)Nc3ccc(Br)cc3)c2)c1 .
Response: 39.6% [25 µM] (inactive)
